Exercise: state measured pIC50 for each of the molecules provided.
Test system: HCC827
Assay Text: Antiproliferative activity against human HCC827 cells after 72 hrs by MTT assay
Format: functional, cell-based
Run Conditions: HCC827, 72 h
Numbers only, as −log10 of the molar value.

These recorded examples may help you get a feel for the data.
Exam item: Which pIC50 reading was recorded for the molecule CN1CCC(Oc2ccc(Nc3ncc4nc([S+]([O-])c5ccccc5)n(C5CCOCC5)c4n3)cc2)CC1 (stereo not given) ?
Marked response: 6.07

Exam item: Would you kindly share the measured pIC50 for CN1CCN(c2ccc(Nc3ncc4nc(Nc5ccccc5)n(C5CCCC5)c4n3)cc2)CC1 ?
Marked response: 7.44

Exam item: What does the record list as pIC50 for CN(C)CCOc1ccc(Nc2ncc3nc([S+]([O-])c4ccccc4)n(C4CCOCC4)c3n2)cc1 (stereo not given) ?
Marked response: 7.30

Batch: pIC50 for all items listed.
1. CN(C)CCOc1ccc(Nc2ncc3nc([S+]([O-])c4ccc(F)cc4)n(C4CCOCC4)c3n2)cc1 (stereo not given)
2. CN(C)CCOc1ccc(Nc2ncc3nc(Sc4ccccc4)n(C4CCOCC4)c3n2)cc1
3. CC(C)n1c([S+]([O-])c2ccccc2)nc2cnc(Nc3ccc(N4CCN(C)CC4)cc3)nc21 (stereo not given)
4. CN(C)CCOc1ccc(Nc2ncc3nc(Sc4ccc(F)cc4)n(C4CCOCC4)c3n2)cc1

Marked response:
6.26
7.35
6.67
7.32

State the recorded pIC50 for every item in the following list.
1. CN(C)CCOc1ccc(Nc2ncc3nc(Sc4cccc(F)c4)n(C4CCOCC4)c3n2)cc1
2. CN1CCN(c2ccc(Nc3ncc4nc(Sc5ccccc5)n(C5CCCC5)c4n3)cc2)CC1

Marked response:
1. 7.29
2. 7.29

Please give pIC50 for each item listed below.
1. CN1CCN(c2ccc(Nc3ncc4nc(Sc5ccccc5)n(C5CCOCC5)c4n3)cc2)CC1
2. CN1CCN(c2ccc(Nc3ncc4nc(SCc5cccnc5)n(C5CC5)c4n3)cc2)CC1
3. CN1CCN(c2ccc(Nc3ncc4nc(SCc5cccnc5)n(C5CCOCC5)c4n3)cc2)CC1
4. CN1CCN(c2ccc(Nc3ncc4nc(Sc5ccccc5)n(CC5CC5)c4n3)cc2)CC1
5. CN1CCN(c2ccc(Nc3ncc4nc([S+]([O-])c5ccccc5)n(C5CC5)c4n3)cc2)CC1 (stereo not given)
6. CC(C)n1c(Sc2ccccc2)nc2cnc(Nc3ccc(N4CCN(C)CC4)cc3)nc21
7. CN1CCN(c2ccc(Nc3ncc4nc([S+]([O-])Cc5ccccc5)n(C5CCOCC5)c4n3)cc2)CC1 (stereo not given)

Marked response:
[7.37, 5.05, 6.30, 6.18, 5.79, 6.54, 6.36]

Provenance of the data: ChEMBL document CHEMBL4219174
